SYSTEM: T1, FGFR1c and the cofactor β-Klotho (Homo sapiens, UniProt P11362+Q86Z14)
T1 construct: host or cells: iLite FGF21 assay ready cells (genetically engineered reporter gene cell line)
T1 sequence (P11362 22-822): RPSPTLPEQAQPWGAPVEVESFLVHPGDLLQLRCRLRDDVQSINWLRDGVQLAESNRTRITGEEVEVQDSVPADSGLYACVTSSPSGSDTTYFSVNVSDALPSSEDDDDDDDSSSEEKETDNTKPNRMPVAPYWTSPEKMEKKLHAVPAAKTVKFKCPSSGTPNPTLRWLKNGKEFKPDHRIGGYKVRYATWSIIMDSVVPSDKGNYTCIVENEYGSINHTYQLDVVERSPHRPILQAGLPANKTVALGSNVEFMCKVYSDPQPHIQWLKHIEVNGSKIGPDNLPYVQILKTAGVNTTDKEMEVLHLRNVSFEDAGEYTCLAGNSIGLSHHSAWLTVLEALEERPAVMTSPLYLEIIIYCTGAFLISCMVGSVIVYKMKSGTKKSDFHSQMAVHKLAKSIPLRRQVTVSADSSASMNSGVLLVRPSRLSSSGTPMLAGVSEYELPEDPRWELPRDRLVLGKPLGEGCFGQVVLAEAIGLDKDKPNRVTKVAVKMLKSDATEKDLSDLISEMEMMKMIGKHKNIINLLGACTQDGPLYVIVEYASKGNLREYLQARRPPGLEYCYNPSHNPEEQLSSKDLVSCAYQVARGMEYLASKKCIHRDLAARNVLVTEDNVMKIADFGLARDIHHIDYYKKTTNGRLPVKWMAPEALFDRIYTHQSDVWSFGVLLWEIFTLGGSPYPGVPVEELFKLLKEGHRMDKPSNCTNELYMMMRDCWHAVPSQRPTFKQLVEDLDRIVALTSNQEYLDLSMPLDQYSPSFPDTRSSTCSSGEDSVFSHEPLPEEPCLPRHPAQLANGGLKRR
T1 sequence (Q86Z14 whole entry): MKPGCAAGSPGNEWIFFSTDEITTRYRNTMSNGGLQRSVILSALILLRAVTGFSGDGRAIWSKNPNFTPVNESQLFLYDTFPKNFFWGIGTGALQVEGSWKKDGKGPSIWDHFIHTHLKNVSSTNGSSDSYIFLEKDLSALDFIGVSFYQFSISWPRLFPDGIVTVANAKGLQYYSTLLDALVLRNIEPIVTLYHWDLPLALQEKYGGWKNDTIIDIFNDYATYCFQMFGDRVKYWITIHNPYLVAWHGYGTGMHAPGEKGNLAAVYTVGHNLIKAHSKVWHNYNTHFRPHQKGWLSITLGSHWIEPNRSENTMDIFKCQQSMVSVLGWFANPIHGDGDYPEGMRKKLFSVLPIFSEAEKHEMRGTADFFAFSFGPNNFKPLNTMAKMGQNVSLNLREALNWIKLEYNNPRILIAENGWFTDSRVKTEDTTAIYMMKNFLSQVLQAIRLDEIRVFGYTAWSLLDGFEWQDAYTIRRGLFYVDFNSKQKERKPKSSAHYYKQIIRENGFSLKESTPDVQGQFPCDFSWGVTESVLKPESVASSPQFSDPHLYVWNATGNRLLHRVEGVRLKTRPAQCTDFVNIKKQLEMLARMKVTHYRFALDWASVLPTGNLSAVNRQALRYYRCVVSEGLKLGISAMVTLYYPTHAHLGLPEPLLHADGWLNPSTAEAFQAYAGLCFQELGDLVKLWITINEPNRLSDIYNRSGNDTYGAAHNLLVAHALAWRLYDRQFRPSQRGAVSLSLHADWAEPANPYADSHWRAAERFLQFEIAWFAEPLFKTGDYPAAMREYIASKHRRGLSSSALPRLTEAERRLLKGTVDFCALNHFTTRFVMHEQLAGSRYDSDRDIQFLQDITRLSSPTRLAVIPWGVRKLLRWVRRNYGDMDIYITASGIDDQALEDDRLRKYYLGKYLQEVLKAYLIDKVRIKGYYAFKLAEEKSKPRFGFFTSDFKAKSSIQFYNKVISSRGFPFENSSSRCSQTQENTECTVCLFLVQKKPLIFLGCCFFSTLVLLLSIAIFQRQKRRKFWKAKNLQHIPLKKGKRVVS
METHOD SUMMARY: dual-luciferase reporter gene assay in iLite FGF21 assay ready cells
Type: cell-based
CONDITION DETAILS: Example 6, four-parameter fitting
Excerpt: iLite FGF21 assay ready cells (purchased from SAVR) is a genetically engineered reporter gene cell line that responds to signals downstream to FGF21 agonism through the expression of firefly luciferase. The receptor FGFR1c and the cofactor β-Klotho were co-overexpressed on the surface of iLite FGF21 assay ready cells and have undergone genetic optimization to enhance sensitivity, such that FGF21 will cause an increase in luciferase expression in a dose-response manner. […]
ASSAY READOUT: EC50 (nM)
Could you give me the number in nM? Just the number is fine.

In the examples that follow, each entry is paired with its recorded EC50.
molecule="Compound 5.9: FGF21H125C mutant (SEQ NO: 9) modified by the albumin-binding agent of Example 2.2 (conjugate, albumin-binding agent conjugated) HPIPDSSPLLQFGGQVRQRYLYTDDAQQTEAHLEIREDGTVGGAADQSPESLLQLKALKPGVIQILGVKTSRFLCQRPDGALYGSLHFDPEACSFRERLLEDGYNVYQSEAHGLPLHLPGNKSPCRDPAPRGPARFLPLPGLPPAPPEPPGILAPQPPDVGSSDPLSMVGGSQGRSPSYES" value_observed=1.18
molecule="Compound 5.8: FGF21K122C mutant (SEQ NO: 8) modified by the albumin-binding agent of Example 2.2 (conjugate, albumin-binding agent conjugated) HPIPDSSPLLQFGGQVRQRYLYTDDAQQTEAHLEIREDGTVGGAADQSPESLLQLKALKPGVIQILGVKTSRFLCQRPDGALYGSLHFDPEACSFRERLLEDGYNVYQSEAHGLPLHLPGNCSPHRDPAPRGPARFLPLPGLPPAPPEPPGILAPQPPDVGSSDPLSMVGGSQGRSPSYES" value_observed=1.13
molecule="Compound 5.10: FGF21D46C mutant (SEQ NO: 7) modified by the albumin-binding agent of Example 2.3 (conjugate, albumin-binding agent of Example 2.3) HPIPDSSPLLQFGGQVRQRYLYTDDAQQTEAHLEIREDGTVGGAACQSPESLLQLKALKPGVIQILGVKTSRFLCQRPDGALYGSLHFDPEACSFRERLLEDGYNVYQSEAHGLPLHLPGNKSPHRDPAPRGPARFLPLPGLPPAPPEPPGILAPQPPDVGSSDPLSMVGGSQGRSPSYES" value_observed=2.69

Query molecule follows.
Answer with reported EC50 of Compound 5.11: FGF21K122C mutant (SEQ NO: 8) modified by the albumin-binding agent of Example 2.3 (conjugate, albumin-binding agent of Example 2.3) HPIPDSSPLLQFGGQVRQRYLYTDDAQQTEAHLEIREDGTVGGAADQSPESLLQLKALKPGVIQILGVKTSRFLCQRPDGALYGSLHFDPEACSFRERLLEDGYNVYQSEAHGLPLHLPGNCSPHRDPAPRGPARFLPLPGLPPAPPEPPGILAPQPPDVGSSDPLSMVGGSQGRSPSYES
2.09
